The reported numbers originate from patent US20220088180A1.

Target: HLA-B*44:03 (human)
Experiment: radioligand competition, purified MHC
pIC50: −log10 of the molar value.
assay metric: pIC50

Examples from the recorded data:
- binder: "APHGHVMVEL (modifications not checked) [… (SEQ ID NO: 14)]"
  assay metric: "pIC50"
  result: "< 4.15"
- binder: "NATNVVIKV (modifications not checked) [… (SEQ ID NO: 37)]"
  assay metric: "pIC50"
  result: 5.09
- binder: "EIKESVQTF (modifications not checked) [… (SEQ ID NO: 15)]"
  assay metric: "pIC50"
  result: "< 4.15"
- binder: "KNIDGYFKIY (modifications not checked) [… (SEQ ID NO: 36)]"
  assay metric: "pIC50"
  result: "< 4.15"

For the next question, use this binder.
Req: Look up pIC50: VGYLQPRTF (modifications not checked) [… (SEQ ID NO: 39)]
Resp: < 4.15
